System: Trypanosoma brucei rhodesiense
Test: Inhibitory constant against Trypanosoma brucei rhodesiense upon incubation with the compound at 37 degrees C under a 5% CO2 atmosphere for 72 hours
Assay type: functional, organism-based
pIC50: −log10 of the molar value.
measured-property: pIC50

Some solved cases for reference:
[
  {
    "molecule": "CCOP(=O)(CC(=O)NCC1OC(n2ccc(=O)[nH]c2=O)CC1O)OCC (stereo unspecified)",
    "pIC50": 4.39
  },
  {
    "molecule": "NS(=O)(=O)NC(=O)OC[C@H]1O[C@@H](n2ccc(=O)[nH]c2=O)C[C@@H]1O",
    "pIC50": 4.05
  }
]

I: CS(=O)(=O)NCC1OC(n2ccc(=O)[nH]c2=O)CC1O (stereo unspecified)
II: O=c1ccn(C2CC(F)C(CNC(c3ccccc3)(c3ccccc3)c3ccccc3)O2)c(=O)[nH]1 (stereo unspecified)
Prompt: Given the listed records, identify the one among I and II with higher pIC50. // output: label of the selected item
Response: II
(II: 5.44, I: 3.83)
